molecular target: rSmTAChE (Schistosoma mansoni); test: biochemical
Assign label 1 whenever Inhibition (%) (Average) does not fall below 70%; assign label 0 whenever it does.

Before answering, review these 4 worked examples.
COMPOUND	SYSTEM_TESTED	DISCRETE_LABEL
CCOc1nc2cccc(C(=O)OCc3oc(=O)oc3C)c2n1Cc1ccc(-c2ccccc2-c2noc(=O)[nH]2)cc1	rSmTAChE (Schistosoma mansoni)	label 0
C[C@H](CO)N1C[C@H](C)[C@H](CN(C)CC2CC2)OCc2ccccc2-c2c(n(C)c3ccccc23)C1=O	rSmTAChE (Schistosoma mansoni)	label 0
N#C[C@H]1[C@H](c2ccc(C3=CCCCC3)cc2)[C@@H](CO)N1S(=O)(=O)c1ccccc1	rSmTAChE (Schistosoma mansoni)	label 0
Cc1cc(C#N)cc(C)c1Oc1nc(Nc2ccc(C#N)cc2)nc(N)c1Br	rSmTAChE (Schistosoma mansoni)	label 1

Data request: Determine whether this compound has Inhibition (%) (Average) no lower than 70%: CCCCc1oc2ccc(NS(C)(=O)=O)cc2c1C(=O)c1ccc(OCCCN(CCCC)CCCC)cc1
Data returned: label 1

Data request: Is Inhibition (%) (Average) for COc1ccc(NC(=O)Nc2ccc3c(c2)[C@H]2C[C@@H](CC(=O)NCc4ccccn4)O[C@H](CO)[C@H]2O3)cc1 at or above 70%?
Data returned: label 1

Data request: Is reported Inhibition (%) (Average) greater than or equal to 70% here: CC(C)(C)c1ccc(CN2CCN(C(c3ccccc3)c3ccc(Cl)cc3)CC2)cc1 (stereo not shown)
Data returned: label 1

Data request: For this compound, is measured Inhibition (%) (Average) 70% or higher? CC(C)c1onc(-c2c(Cl)cccc2Cl)c1COc1ccc(/C=C/c2cccc(C(=O)O)c2)c(Cl)c1 [GW-4064, reference compound]
Data returned: label 0

Data request: Evaluate O=C(O)c1ccccc1Nc1ccc(CCc2ccc(Cl)c(Cl)c2)cc1 : Inhibition (%) (Average) at minimum 70%?
Data returned: label 1

Data request: Kindly determine if Inhibition (%) (Average) recorded for COc1ccc(NC(=O)Nc2ccc3c(c2)[C@@H]2C[C@H](CC(=O)NCc4ccccc4F)O[C@@H](CO)[C@@H]2O3)cc1 is above or exactly 70%.
Data returned: label 0

Data request: hey, is Inhibition (%) (Average) for this one >= 70%? COc1ccc(C#Cc2ccc3c(c2)O[C@H](CN(C)S(=O)(=O)c2ccccc2F)[C@H](C)CN([C@H](C)CO)S3(=O)=O)cc1
Data returned: label 0

Data request: Could you please find out whether O=C(C[C@@H]1C[C@@H]2c3cc(NC(=O)NC4CCCC4)ccc3O[C@@H]2[C@H](CO)O1)NCc1ccccc1F has Inhibition (%) (Average) that meets 70% or exceeds it?
Data returned: label 1

Data request: Check the entry O=C(C[C@@H]1C[C@@H]2c3cc(NC(=O)NC4CCCC4)ccc3O[C@@H]2[C@H](CO)O1)NCc1ccc(Cl)cc1 : does Inhibition (%) (Average) equal or exceed 70%?
Data returned: label 1

###

target: rSmTAChE (Schistosoma mansoni); test: biochemical
ENDPOINT_LABEL: Inhibition (%) Replicate B

Field: example entries. Status: answers known.
MOLECULE	Inhibition (%) Replicate B
CCCN1C[C@H](CSC)C[C@@H]2c3cccc4[nH]cc(c34)C[C@H]21 [BRD-K60770992-066-25-0]	69.82%
O=C(Nc1ccc(Cl)cc1)Nc1ccc(Cl)c(Cl)c1 [BRD-K25029121-001-05-8]	85.82%
COc1ccc(NC(=O)Nc2ccc3c(c2)[C@@H]2C[C@H](CC(=O)NCc4ccccc4F)O[C@@H](CO)[C@@H]2O3)cc1 [BRD-K05329107-001-01-3]	61.69%
O=C(C[C@@H]1C[C@@H]2c3cc(NC(=O)NC4CCCC4)ccc3O[C@@H]2[C@@H](CO)O1)NCc1ccccc1F [BRD-K71334452-001-01-3]	88.11%

Data request: Find the measured Inhibition (%) Replicate B: item COc1ccc(C#Cc2ccc3c(c2)O[C@H](CN(C)S(=O)(=O)c2ccccc2F)[C@H](C)CN([C@@H](C)CO)S3(=O)=O)cc1 [BRD-K71357636-001-01-3] , target or system rSmTAChE (Schistosoma mansoni).
Data returned: 66.19%

Data request: Item CCCC#Cc1ccc([C@H]2[C@@H](CO)N3C(=O)CN(S(=O)(=O)c4ccccc4C)C[C@@H]23)cc1 [BRD-K77990919-001-01-3] with rSmTAChE (Schistosoma mansoni) - Inhibition (%) Replicate B?
Data returned: 83.20%

Data request: What reported Inhibition (%) Replicate B corresponds to Cc1cc(C#N)cc(C)c1Oc1nc(Nc2ccc(C#N)cc2)nc(N)c1Br [BRD-K74717603-001-02-2] on rSmTAChE (Schistosoma mansoni)?
Data returned: 71.88%

Data request: Reported Inhibition (%) Replicate B for rSmTAChE (Schistosoma mansoni), given CC(=O)c1cc([N+](=O)[O-])c(Sc2cccc(Cl)c2Cl)s1 [BRD-K13606314-001-01-3] ?
Data returned: 75.33%

Data request: Give recorded Inhibition (%) Replicate B with rSmTAChE (Schistosoma mansoni) for the following molecule: O=C(C[C@H]1C[C@H]2c3cc(NC(=O)Nc4ccc(C(F)(F)F)cc4)ccc3O[C@H]2[C@H](CO)O1)NC1CCCCC1 [BRD-K50094564-001-01-3]
Data returned: 70.03%

Data request: Which measured Inhibition (%) Replicate B belongs to C[C@H](CO)N1C[C@H](C)[C@@H](CN(C)C(=O)Nc2cc(F)ccc2F)Oc2cc(-c3cccc(C#N)c3)ccc2S1(=O)=O [BRD-K72311435-001-01-2] , tested on rSmTAChE (Schistosoma mansoni)?
Data returned: 60.99%

Data request: So what Inhibition (%) Replicate B did CN(Cc1ccc(C(C)(C)C)cc1)Cc1cccc2ccccc12 [BRD-K90630139-003-05-9] get with rSmTAChE (Schistosoma mansoni)?
Data returned: 61.01%

Data request: Request body: readout Inhibition (%) Replicate B, system rSmTAChE (Schistosoma mansoni), query C#C[C@]1(OC(C)=O)CC[C@H]2[C@@H]3CCC4=C[C@@H](OC(C)=O)CC[C@@H]4[C@H]3CC[C@@]21C [BRD-K46331928-001-05-8] . Return the value.
Data returned: 94.31%

Data request: Return Inhibition (%) Replicate B measured with rSmTAChE (Schistosoma mansoni) given this molecule: CSc1cc2c(cc1C(F)(F)F)N(C(=O)Nc1cccnc1)CC2 [BRD-K14807180-001-02-5]
Data returned: 84.63%

Data request: Record CC(C)n1cnc2c(NCCc3ccc(O)cc3)nc(-c3csc4ccccc34)nc21 [BRD-K36739687-001-03-0] : what is its Inhibition (%) Replicate B with rSmTAChE (Schistosoma mansoni)?
Data returned: 65.85%

Data request: Find Inhibition (%) Replicate B (rSmTAChE (Schistosoma mansoni)) for the entry COc1ccc(C#Cc2ccc3c(c2)O[C@H](CN(C)S(=O)(=O)c2ccccc2F)[C@@H](C)CN([C@@H](C)CO)S3(=O)=O)cc1 [BRD-K14241686-001-01-8]
Data returned: 69.31%

###

target: rSmTAChE (Schistosoma mansoni, UniProt A0A3Q0KMM5); assay type: biochemical
Sequence (A0A3Q0KMM5 27-661 limits assumed): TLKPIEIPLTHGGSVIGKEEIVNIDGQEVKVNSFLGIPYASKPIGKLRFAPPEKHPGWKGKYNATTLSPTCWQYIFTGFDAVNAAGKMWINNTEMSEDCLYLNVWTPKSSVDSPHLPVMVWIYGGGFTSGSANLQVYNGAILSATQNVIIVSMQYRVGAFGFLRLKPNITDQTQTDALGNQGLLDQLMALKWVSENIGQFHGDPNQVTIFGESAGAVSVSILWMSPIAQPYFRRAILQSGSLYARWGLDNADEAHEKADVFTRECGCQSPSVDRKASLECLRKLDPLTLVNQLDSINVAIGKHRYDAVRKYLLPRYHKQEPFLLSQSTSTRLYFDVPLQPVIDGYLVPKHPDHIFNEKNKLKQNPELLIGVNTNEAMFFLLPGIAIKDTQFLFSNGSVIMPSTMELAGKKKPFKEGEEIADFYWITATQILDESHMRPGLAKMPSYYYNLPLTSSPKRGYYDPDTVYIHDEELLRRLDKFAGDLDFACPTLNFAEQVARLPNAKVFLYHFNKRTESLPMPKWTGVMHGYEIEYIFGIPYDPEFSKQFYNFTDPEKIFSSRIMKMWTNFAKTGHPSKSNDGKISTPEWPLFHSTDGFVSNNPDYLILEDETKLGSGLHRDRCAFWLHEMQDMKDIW
ENDPOINT_LABEL: Data Mode (curve class), rSmTAChE

A selection of reference data follows.
MOLECULE	ENDPOINT_LABEL	MEASURED_RESULT
Nc1ccc(O)c(C(=O)O)c1 [Mesalazine, reference compound]	Data Mode (curve class), rSmTAChE	decreasing
COc1ccc(/C=C/CCCCOc2ccc(C(=O)c3cccc(C(=O)O)c3)cc2CCC(=O)O)cc1 [LY223982, reference compound]	Data Mode (curve class), rSmTAChE	decreasing
CCCCCCCCCCCC([NH2+][O-])c1cc(C)ccc1O (stereo not shown) [BRD-A37752546-001-01-9]	Data Mode (curve class), rSmTAChE	inactive
CCCCC(=O)O[C@H]1CC[C@H]2[C@@H]3CCc4cc(O)ccc4[C@H]3CC[C@]12C [BRD-K66766661-001-19-2]	Data Mode (curve class), rSmTAChE	inactive

# evaluate next
Data request: Look up Data Mode (curve class), rSmTAChE for this molecule: C[C@H](Oc1cc(-c2cnn(C3CCNCC3)c2)cnc1N)c1c(Cl)ccc(F)c1Cl [BRD-K40308497-001-02-0]
Data returned: decreasing

###

biological target: recombinant human acetylcholinesterase, rHsAChE (Homo sapiens, UniProt P22303); assay: biochemical; conditions: Table 2, DOS-A library; Inactive = inactive at the maximum tested concentration (40 µM); read-out: IC50 (µM) rHsAChE
Sequence (P22303 32-614): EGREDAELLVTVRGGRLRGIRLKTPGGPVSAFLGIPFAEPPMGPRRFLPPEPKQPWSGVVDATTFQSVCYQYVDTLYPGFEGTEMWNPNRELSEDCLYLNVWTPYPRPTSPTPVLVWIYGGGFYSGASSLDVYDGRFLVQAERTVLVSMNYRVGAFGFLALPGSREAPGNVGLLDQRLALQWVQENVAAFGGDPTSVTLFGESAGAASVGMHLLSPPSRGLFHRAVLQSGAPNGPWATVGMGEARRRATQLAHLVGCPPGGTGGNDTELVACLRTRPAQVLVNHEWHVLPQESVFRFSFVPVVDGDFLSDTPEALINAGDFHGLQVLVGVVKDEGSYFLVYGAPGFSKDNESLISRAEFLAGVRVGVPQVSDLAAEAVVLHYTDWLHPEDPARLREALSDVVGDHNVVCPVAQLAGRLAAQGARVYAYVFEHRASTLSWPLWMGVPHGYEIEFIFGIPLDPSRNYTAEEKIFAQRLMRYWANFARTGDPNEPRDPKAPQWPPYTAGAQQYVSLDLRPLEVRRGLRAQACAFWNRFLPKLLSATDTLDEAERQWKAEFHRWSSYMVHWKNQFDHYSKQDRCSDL
ENDPOINT_LABEL: IC50 (µM)
State the answer as a number, implicitly in µM.

Below: 2 compounds and their reported IC50.
COMPOUND	RESULT_UNIT	IC50
CC(C)(C)[S+]([O-])N1Cc2cc(C(=O)NCCN3CCCC3)nc(-c3cccc(-c4ccc(C#N)cc4)c3)c2C1CCO (stereo not drawn)	µM	35.5
COc1cccc(C#Cc2ccc([C@@H]3[C@@H](C#N)N(C(=O)c4ccccn4)[C@H]3CO)cc2)c1	µM	31.2

Continue with the compound presented below.
Data request: # lookup: IC50 of COc1cccc(C#Cc2ccc([C@H]3[C@@H](CO)N(C(=O)c4ccccn4)[C@H]3C#N)cc2)c1
Data returned: 33.7
